# credit: patent US20230151003A1

# Measurement target: Met (Homo sapiens)
# Sequence (P08581 25-1390): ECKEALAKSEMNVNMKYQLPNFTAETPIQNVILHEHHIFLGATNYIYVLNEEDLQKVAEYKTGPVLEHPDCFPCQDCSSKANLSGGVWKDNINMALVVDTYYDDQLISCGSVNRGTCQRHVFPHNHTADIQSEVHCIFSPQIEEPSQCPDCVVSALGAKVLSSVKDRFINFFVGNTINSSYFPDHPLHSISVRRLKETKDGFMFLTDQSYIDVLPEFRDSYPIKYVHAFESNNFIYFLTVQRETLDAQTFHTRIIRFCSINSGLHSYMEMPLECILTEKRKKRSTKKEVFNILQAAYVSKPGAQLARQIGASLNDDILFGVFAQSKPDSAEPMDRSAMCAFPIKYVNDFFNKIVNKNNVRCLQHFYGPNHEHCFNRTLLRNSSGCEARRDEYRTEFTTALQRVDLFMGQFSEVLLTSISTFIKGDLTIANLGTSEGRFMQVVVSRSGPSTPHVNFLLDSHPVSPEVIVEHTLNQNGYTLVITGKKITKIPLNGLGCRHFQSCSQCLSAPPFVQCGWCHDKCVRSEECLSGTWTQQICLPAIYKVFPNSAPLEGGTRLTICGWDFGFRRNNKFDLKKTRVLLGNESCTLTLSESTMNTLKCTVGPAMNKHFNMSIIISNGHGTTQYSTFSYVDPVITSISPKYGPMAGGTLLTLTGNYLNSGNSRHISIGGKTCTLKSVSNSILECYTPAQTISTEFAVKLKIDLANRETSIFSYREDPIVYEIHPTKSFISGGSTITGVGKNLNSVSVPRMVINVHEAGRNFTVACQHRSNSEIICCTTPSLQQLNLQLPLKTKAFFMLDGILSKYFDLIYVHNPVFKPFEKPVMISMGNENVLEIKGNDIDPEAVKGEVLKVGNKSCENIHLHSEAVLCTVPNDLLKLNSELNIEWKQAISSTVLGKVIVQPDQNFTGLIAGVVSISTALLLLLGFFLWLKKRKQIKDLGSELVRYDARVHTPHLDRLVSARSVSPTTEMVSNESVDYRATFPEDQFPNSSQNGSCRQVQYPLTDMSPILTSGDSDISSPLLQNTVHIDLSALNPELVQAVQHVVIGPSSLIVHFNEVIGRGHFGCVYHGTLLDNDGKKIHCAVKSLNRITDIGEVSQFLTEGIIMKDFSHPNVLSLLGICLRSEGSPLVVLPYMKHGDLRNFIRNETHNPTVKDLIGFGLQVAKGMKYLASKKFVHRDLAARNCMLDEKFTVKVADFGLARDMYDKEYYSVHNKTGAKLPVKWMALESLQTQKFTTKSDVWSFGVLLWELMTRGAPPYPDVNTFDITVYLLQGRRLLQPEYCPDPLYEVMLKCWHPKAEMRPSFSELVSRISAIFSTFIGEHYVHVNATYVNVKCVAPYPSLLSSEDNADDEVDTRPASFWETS
# Measurement description: Met autophosphorylation ELISA in PC-3 cells
# Type: cell-based
# Parameters: endogenous in cells; host or cells: PC-3 prostate cancer cells (ATCC #CRL-1435)
# Assay conditions: Table 3 Cellular Activities, HGF-stimulated, phospho-Met ELISA, read-out: c-Met IC50
Where a name gives a salt, the structure may show the parent alone.
Parameter: IC50

>  <Molecule>
COc1cnc2c(Oc3ccc(NC(=O)c4cnc(C)c(-c5ccc(C)o5)c4O)cc3F)ccnc2c1

>  <IC50>
100 to 300 nM

$$$$
>  <Molecule>
CCc1c(C(=O)Nc2ccc(Oc3ccnc4cc(OC)c(OC)nc34)cc2)c(=O)c(-c2ccco2)c(C)n1C

>  <IC50>
300 to 1000 nM

$$$$
>  <Molecule>
COc1cc2nccc(Oc3ccc(NC(=O)c4cnc(C)c(-c5cccs5)c4O)cc3F)c2nc1OC

>  <IC50>
≤ 100 nM

$$$$

Given `COCCOc1cnc2c(Oc3ccc(NC(=O)c4c(C)n(C)c(C)c(-c5ccco5)c4=O)cc3F)ccnc2c1` , state its recorded IC50.
≤ 100 nM

Given `COc1cnc2c(Oc3ccc(NC(=O)c4cn(CCF)c(C)c(-c5ccc(C)s5)c4=O)cc3F)ccnc2c1` , state its recorded IC50.
≤ 100 nM

Given COc1cc2nccc(Oc3ccc(NC(=O)c4cccn(-c5ccnc(O)c5)c4=O)cc3F)c2nc1OC [Compound 248, hydrochloride] , state its recorded IC50.
≤ 100 nM

Given `COc1cc2nccc(Oc3ccc(NC(=O)c4c(C)n(CC(F)F)cc(-c5ccco5)c4=O)cc3F)c2nc1OC` , state its recorded IC50.
≤ 100 nM

Given `COc1cc2nccc(Oc3ccc(NC(=O)c4c(C)ncc(-c5ccoc5)c4O)cc3F)c2nc1OC` , state its recorded IC50.
≤ 100 nM
